Entry source: PubChem BioAssay AID720670

# Tested on: TALL-104 cells, thapsigargin Ca2+ rise, fura-2 ratio
# test_method_notes: intracellular Ca2+ signaling inhibition in T cells – TALL-104 cells, fura-2 fluorescence, CherryPick01, mechanism study for lytic granule exocytosis inhibitor project (AID 720670)
# setup_conditions: at 30 µM
Results filed as inconclusive are left out. Activity calls are given as the source filed them.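 Rule for the calls: active = inhibition of the calcium rise above 50%; inconclusive = blank fluorescence over twice solvent-only controls, so no ratio; inactive = inhibition below 50%.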
Labels: active, inactive

- smi: "O=c1c2ccc(F)cc2sn1-c1ccccc1"
  classification: "inactive"
- smi: "COC(=O)c1c(NC(=O)c2ccc(C(=O)c3ccccc3)cc2)sc2c1CC(C)(C)NC2(C)C"
  classification: "active"
- smi: "Cc1ccc(S(=O)(=O)n2ccc3c(OCCOCCNCc4ccc(F)cc4)cccc32)cc1"
  classification: "inactive"
- smi: "COc1ccc(-c2cc(NC=O)c3ncc(-c4cccc(OC)c4)n3c2)cc1"
  classification: "inactive"
- smi: "COc1cccc(-c2cnc3c(NC(C)=O)cc(-c4ccsc4)cn23)c1"
  classification: "inactive"
- smi: "Cn1sc(=O)c2cc(S(=O)(=O)NC3CC3)ccc21"
  classification: "active"

====

# Test system: TALL-104 cells, thapsigargin Ca2+ rise, fura-2 ratio
# test_method_notes: intracellular Ca2+ signaling inhibition in T cells – TALL-104 cells, fura-2 fluorescence, CherryPick01, mechanism study for lytic granule exocytosis inhibitor project (AID 720670)
# setup_conditions: at 30 µM
Results filed as inconclusive are left out. Activity calls are given as the source filed them.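 Rule for the calls: active = inhibition of the calcium rise above 50%; inconclusive = blank fluorescence over twice solvent-only controls, so no ratio; inactive = inhibition below 50%.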
Classes used: active, inactive

- compound: "CCOC(=O)c1c(CSc2ccccc2)n(C)c2cc(Br)c(O)c(CN(C)C)c12"
  study_target: "TALL-104 cells, thapsigargin Ca2+ rise, fura-2 ratio"
  classification: "active"
- compound: "c1ccc(CNc2nc(NCC3CC3)nc3cc(-c4ccccc4)sc23)cc1"
  study_target: "TALL-104 cells, thapsigargin Ca2+ rise, fura-2 ratio"
  classification: "active"
- compound: "O=CNc1cc(-c2ccsc2)cn2c(-c3ccccc3)cnc12"
  study_target: "TALL-104 cells, thapsigargin Ca2+ rise, fura-2 ratio"
  classification: "inactive"
- compound: "CCCNC(=O)Cn1sc2nc(C)cc(C)c2c1=O"
  study_target: "TALL-104 cells, thapsigargin Ca2+ rise, fura-2 ratio"
  classification: "inactive"
- compound: "O=c1c2ccccc2sn1-c1ccccc1"
  study_target: "TALL-104 cells, thapsigargin Ca2+ rise, fura-2 ratio"
  classification: "inactive"
- compound: "CC1COCC(C)N1C1=C(Cl)C(=O)c2ccccc2C1=O (stereo unspecified)"
  study_target: "TALL-104 cells, thapsigargin Ca2+ rise, fura-2 ratio"
  classification: "inactive"

====

# System: TALL-104 cells, thapsigargin Ca2+ rise, fura-2 ratio
# test_method_notes: intracellular Ca2+ signaling inhibition in T cells – TALL-104 cells, fura-2 fluorescence, CherryPick01, mechanism study for lytic granule exocytosis inhibitor project (AID 720670)
# setup_conditions: at 30 µM; stronger effect = higher value
Results filed as inconclusive are left out.
recorded_metric: inhibition (%)

- molecule: "CCOC(=O)c1c(NC(=O)COc2ccccc2OCC)sc2c1CC(C)(C)NC2(C)C"
  study_target: "TALL-104 cells, thapsigargin Ca2+ rise, fura-2 ratio"
  unit_name: "%"
  numeric_readout: 32.1
- molecule: "COC(=O)[C@]12CCCCC=C1N(Cc1cccc3ccccc13)C(=O)[C@H](CC(=O)NCc1ccc(OC)c(OC)c1)C2"
  study_target: "TALL-104 cells, thapsigargin Ca2+ rise, fura-2 ratio"
  unit_name: "%"
  numeric_readout: 6.3
- molecule: "COc1ccc(N2C(=O)CC(Sc3nnc(-c4ccccc4)o3)C2=O)cc1 (centres undefined)"
  study_target: "TALL-104 cells, thapsigargin Ca2+ rise, fura-2 ratio"
  unit_name: "%"
  numeric_readout: -14.7
- molecule: "Cc1cc(N2CCN(c3nc(-c4ccc([N+](=O)[O-])cc4)cs3)CC2)c2ccccc2n1"
  study_target: "TALL-104 cells, thapsigargin Ca2+ rise, fura-2 ratio"
  unit_name: "%"
  numeric_readout: -35.4
- molecule: "COc1ccc([N+](=O)[O-])cc1Nc1c2ccccc2nc2ccccc12"
  study_target: "TALL-104 cells, thapsigargin Ca2+ rise, fura-2 ratio"
  unit_name: "%"
  numeric_readout: 12.2
- molecule: "CC(=O)Nc1ccc2c(=O)n(-c3ccccc3)sc2c1"
  study_target: "TALL-104 cells, thapsigargin Ca2+ rise, fura-2 ratio"
  unit_name: "%"
  numeric_readout: 16.3
- molecule: "CC1=NOC(=O)/C1=C/c1ccc(-c2ccc(Cl)cc2)o1"
  study_target: "TALL-104 cells, thapsigargin Ca2+ rise, fura-2 ratio"
  unit_name: "%"
  numeric_readout: 18.1
- molecule: "CCOc1cc(CNCCc2ccc(S(N)(=O)=O)cc2)ccc1OCc1ccc(Cl)cc1"
  study_target: "TALL-104 cells, thapsigargin Ca2+ rise, fura-2 ratio"
  unit_name: "%"
  numeric_readout: 63.5
- molecule: "CC(=O)Nc1ccc2sn(-c3ccccc3)c(=O)c2c1"
  study_target: "TALL-104 cells, thapsigargin Ca2+ rise, fura-2 ratio"
  unit_name: "%"
  numeric_readout: 12.6
